Listed compounds paired with reported pIC50
ASSAYED_SYSTEM: HDAC6 human recombinant (Homo sapiens, UniProt Q9UBN7)
Sequence (Q9UBN7 1-1215): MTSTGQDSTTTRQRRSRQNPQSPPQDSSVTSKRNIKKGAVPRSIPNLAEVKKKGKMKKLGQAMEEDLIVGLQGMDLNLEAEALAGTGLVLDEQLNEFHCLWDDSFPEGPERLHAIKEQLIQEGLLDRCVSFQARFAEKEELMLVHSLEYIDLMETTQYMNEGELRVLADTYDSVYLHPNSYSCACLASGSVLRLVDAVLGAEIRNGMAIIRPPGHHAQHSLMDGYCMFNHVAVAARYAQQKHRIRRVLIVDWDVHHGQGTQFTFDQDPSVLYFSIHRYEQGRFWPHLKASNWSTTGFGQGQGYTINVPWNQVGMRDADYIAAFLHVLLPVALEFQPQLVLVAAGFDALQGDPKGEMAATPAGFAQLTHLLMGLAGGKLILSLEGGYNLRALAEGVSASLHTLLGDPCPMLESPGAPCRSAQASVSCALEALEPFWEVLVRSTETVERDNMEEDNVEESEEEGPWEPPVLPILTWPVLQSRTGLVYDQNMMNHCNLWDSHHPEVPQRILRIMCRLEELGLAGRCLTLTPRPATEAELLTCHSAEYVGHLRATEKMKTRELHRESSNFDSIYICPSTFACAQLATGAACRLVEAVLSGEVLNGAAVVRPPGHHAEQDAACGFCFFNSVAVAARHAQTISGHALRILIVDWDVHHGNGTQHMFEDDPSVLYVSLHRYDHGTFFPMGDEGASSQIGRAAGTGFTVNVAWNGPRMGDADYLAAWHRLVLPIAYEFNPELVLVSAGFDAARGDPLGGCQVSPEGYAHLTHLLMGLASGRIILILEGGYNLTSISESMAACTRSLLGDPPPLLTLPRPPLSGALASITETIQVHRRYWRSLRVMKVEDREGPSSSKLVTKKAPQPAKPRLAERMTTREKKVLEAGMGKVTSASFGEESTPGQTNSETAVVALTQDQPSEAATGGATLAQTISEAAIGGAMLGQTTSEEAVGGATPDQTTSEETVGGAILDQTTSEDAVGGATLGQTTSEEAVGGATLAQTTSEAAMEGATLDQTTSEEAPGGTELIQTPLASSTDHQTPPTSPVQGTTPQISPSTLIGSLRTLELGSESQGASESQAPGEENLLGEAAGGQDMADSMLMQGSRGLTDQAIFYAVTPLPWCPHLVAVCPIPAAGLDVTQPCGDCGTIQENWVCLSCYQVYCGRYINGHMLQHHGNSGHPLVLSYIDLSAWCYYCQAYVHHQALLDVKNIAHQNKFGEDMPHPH
PROCEDURE_DETAILS: HDAC6 enzyme activity inhibition (fluorimetric, in vitro)
TEST_PARAMETERS: 37° C., 60 minutes; tested at 0.1, 1, 10, 100 and 1000 nM
pIC50: −log10 of the molar value.
EXPERIMENTAL_READOUT: pIC50

| COMPOUND_SMILES | ASSAYED_SYSTEM | VALUE_MEASURED |
| --- | --- | --- |
| Cc1c(Cc2ccc(C(=O)NO)cc2)c2ccccc2n1CC1CCN(CC2(F)CCN(C(C)C)CC2)CC1 | HDAC6 human recombinant (Homo sapiens, UniProt Q9UBN7) | 7.43 |
| Cc1c(Cc2ccc(C(=O)NO)cc2)c2ccccc2n1CC1CCN(CC2(C)COC2)CC1 | HDAC6 human recombinant (Homo sapiens, UniProt Q9UBN7) | 7.55 |
| Cc1c(Cc2ccc(C(=O)NO)cc2)c2ccccc2n1CC1CCN(Cc2cccnc2)CC1 | HDAC6 human recombinant (Homo sapiens, UniProt Q9UBN7) | 7.20 |
| Cc1c(Cc2ccc(C(=O)NO)cc2)c2ccccc2n1CC1CCN(CC2(F)CCOCC2)CC1 | HDAC6 human recombinant (Homo sapiens, UniProt Q9UBN7) | 8.15 |
